- experimental-target: CHO-XBP1 luciferase reporter, IRE1-XBP1 UPR activation
- experiment-summary: XBP1 luciferase reporter activation – CHO-XBP1 cells, luminescence, counter-screen for apoptotic UPR arm activators, dose response (AID 489040);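 note: reporter read after six hours of compound exposure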
The source made the active and inactive calls.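 Rule for the calls: active = mean half-maximal activating concentration from the dose-response fit at or below a set limit; inactive = the rest.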
recorded-metric: EC50

COc1ccc(Cn2c(SCc3ccc(C)cc3)nc3cc(OC)c(OC)cc3c2=N)cc1Cl | > 80 µM (inactive)
COc1ccc(C(=O)Sc2ccc(Cl)cc2)cc1OC | > 80 µM (inactive)
COc1cc(NC(=O)c2cncc(-c3ccc(C#N)cc3)c2)cc(C(=O)Nc2cccc(C(F)(F)F)c2)c1 | 19.3 µM

--- query ---
Enter reported EC50 observed with CHO-XBP1 luciferase reporter, IRE1-XBP1 UPR activation for O=C(Nc1nc(-c2ccccn2)cs1)c1cc(Cl)ccc1[N+](=O)[O-] > 80 µM (inactive)

====

- experimental-target: CHO-XBP1 luciferase reporter, IRE1-XBP1 UPR activation
- experiment-summary: XBP1 luciferase reporter activation – CHO-XBP1 cells, luminescence, counter-screen for apoptotic UPR arm activators, dose response (AID 489040);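 note: reporter read after six hours of compound exposure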
The source made the active and inactive calls.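 How the source made its calls: active means mean half-maximal activating concentration from the dose-response fit at or below a set limit; inactive means the rest.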
Bench note: report the call from active, inactive

Use these answered entries as a reference point.
COc1ccccc1-c1cc(C(F)(F)F)nc(S(=O)(=O)CCCC(=O)N2CCCCC2C)n1 (centres undefined) | inactive
Cc1ccc(F)cc1N=Cc1c(O)c2ccccc2oc1=O | inactive
Cc1ccc(/C=C/C(=O)c2ccc([N+](=O)[O-])o2)cc1 | inactive
O=C(O)CC1CCC(=C(Cl)Cl)C1 (centres undefined) | inactive
CCc1nnc(NC(=O)c2nc(S(=O)(=O)Cc3ccc(C)cc3)ncc2Cl)s1 | inactive

# outcome recorded in this test, key = CCOc1cc(/C=N/Nc2cc(C)nc(-n3nc(C)cc3C)n2)ccc1O inactive

# outcome recorded in this test, key = COc1ccc(-c2nc(-c3ccccc3)nc(Cl)c2C#N)cc1 inactive

Please state the recorded outcome for this molecule: COc1ccc(CCN2CCC(Nc3nc4ccccc4n3Cc3ccc(F)cc3)CC2)cc1 inactive

Look up the recorded call for CC1(C)C=Cc2c(c3c(c4c(=O)c(-c5ccc(O)cc5)coc24)OC(C)(C)CC3)O1 in this test. inactive

Hello, I am checking results. What call was entered for CCCCCCCC(=O)Nc1ccc(C(=O)N/N=C/c2cccc([N+](=O)[O-])c2)cc1 ? active

What is the recorded call for this molecule in the test? CC1=NOC(=O)/C1=C\c1ccc(-c2cccc(Cl)c2)o1 inactive

Identify the outcome logged in this assay for the molecule shown: O=C(/C=C/Sc1ccccc1)c1ccccc1 inactive

Dear all, I need the recorded test outcome for O=C(N/N=C(\c1ccccc1)c1ccccn1)c1cccc([N+](=O)[O-])c1 , thank you. inactive

Could you please tell me the result logged for Oc1c(C(Nc2ccccn2)c2ccccn2)ccc2cccnc12 (centres undefined) in this assay? inactive

How did this test come out for Cc1nc2ccccc2n1-c1nc(-c2ccco2)cc(C(F)(F)F)n1 ? inactive

Outcome? O=C1NC(=O)N(CCc2ccc(F)cc2)C(=O)/C1=C/C=C/c1ccccc1 inactive

Could you kindly confirm the outcome this assay logged for O=C(CCl)c1ccc(Cc2ncc(C(F)(F)F)cc2Cl)s1 ? inactive

Record request — test call for Cc1ccc(-c2nn(-c3ccccc3)cc2C=C2C(=O)CC(C)(C)CC2=O)cc1 inactive

Just curious, what result did CCOC(=O)c1sc(N(Cc2ccccc2)C(=O)CCl)nc1C get here? active

Per the assay record, what outcome was assigned to CCOC(=O)c1c2ccc(OCC(=O)N/N=C/c3ccc(C)cc3)cc2n2ccccc12 ? inactive

Check the results log: what was the call for CCc1nn(-c2cc(Oc3cccc4ccccc34)nc(-c3ccccc3)n2)c(N)c1C#N ? inactive

Outcome logged for Oc1ccc(-c2csc(-c3ccccc3)n2)cc1O in this assay: inactive

====

- experimental-target: CHO-XBP1 luciferase reporter, IRE1-XBP1 UPR activation
- experiment-summary: XBP1 luciferase reporter activation – CHO-XBP1 cells, luminescence, counter-screen for apoptotic UPR arm activators, dose response (AID 489040);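 note: reporter read after six hours of compound exposure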
Active and inactive are the calls of the source.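 The calls were made as follows: active = mean half-maximal activating concentration from the dose-response fit at or below a set limit; inactive = the rest.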
Choose the fitting class; nothing outside Yes (active), No (inactive) is accepted.

CCCCC1CCC(C(=O)N(CCCC)c2c(N)n(CCCC)c(=O)[nH]c2=O)CC1 (stereo not drawn) | No
O=C(/C=C/c1ccc(O)c(O)c1)c1ccccc1O | No
Cc1cc(NC(=O)CCS(=O)(=O)c2nc(-c3ccccc3)cc(C(F)(F)F)n2)no1 | No

Entry O=C(CCC(=O)Nc1ccc(Cl)cc1Cl)N/N=C/c1ccc([N+](=O)[O-])o1 : call = ? No

Recorded call for Cc1cc(C(=O)c2ccc(C(C)(C)C)cc2)c(NC(=O)CCl)s1 ? No

Please share the test call associated with O=[N+]([O-])c1ccccc1S(=O)(=O)Nc1cccc2cccnc12 . No

Can you look up the reported call for CCOC(=O)c1cnc(-n2nc(C)cc2C)nc1NC1CCCCC1 for me? No

Dear all, I need the recorded test outcome for Cc1[nH]c2ccccc2c1CN1CCC(Cc2ccccc2)CC1 , thank you. No

Assay result, entry Cn1c(=O)c2c(SCC(=O)Nc3ccccc3F)nc(-c3ccccc3F)nc2n(C)c1=O — outcome? Yes

What classification did Oc1ccc(CN2CCN(Cc3ccccc3)CC2)c2cccnc12 end up with in this test? No

Given CC(C)(C)C(=O)OCc1nc(-c2ccc(O)c(O)c2)cs1 , state the outcome it received in this test. No

// param item: O=C1Nc2ccccc2/C1=C/C(=O)c1cccs1 ; yields the recorded call No

Which outcome did this test record for the molecule CCOC(=O)c1c(NC(C)=O)sc2c1CCC(C=O)=C2Sc1ccccc1 ? No

Please share the test call associated with CC(=O)Oc1ccc(OC(C)=O)c(SCCCCCN2CCOCC2)c1 . No

What did this assay record as the result for Cc1cc(C(=O)CCl)c(C)n1CCc1ccccc1 ? No

Which outcome was assigned to COC(=O)c1ccc(-n2c(C)cc(C(=O)CCl)c2C)cc1 in this test? Yes

Dear all, I need the recorded test outcome for O=C(CCl)N1N=C(c2cccs2)CC1c1ccco1 (stereo not drawn) , thank you. No

Dear colleague, could you share the recorded outcome for Cc1nc(NC(=O)/C=C/c2ccccc2)n[nH]1 when you have a moment? No

What did this assay record as the result for CCN(CC)c1ccc(C=C2C(=O)NC(=S)NC2=O)cc1 ? No

Check the results log: what was the call for CCSC1(SCC)N=C(N)C2(C#N)C(c3ccc(OC)c(OC)c3OC)C12C#N (stereo not drawn) ? No

====

- experimental-target: CHO-XBP1 luciferase reporter, IRE1-XBP1 UPR activation
- experiment-summary: XBP1 luciferase reporter activation – CHO-XBP1 cells, luminescence, counter-screen for apoptotic UPR arm activators, dose response (AID 489040);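 note: reporter read after six hours of compound exposure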
Activity calls are given as the source filed them.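 How the source made its calls: active means mean half-maximal activating concentration from the dose-response fit at or below a set limit; inactive means the rest.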
recorded-metric: EC50

Previously resolved entries follow.
Oc1ccc(-c2cn3ccccc3n2)cc1O | > 80 µM (inactive)
O=S(=O)(Nc1cccc2cccnc12)c1ccc(S(=O)(=O)N2CCCC2)cc1 | > 80 µM (inactive)
CCc1cc(C(=O)c2ccc(C)cc2)c(NC(=O)CCl)s1 | > 80 µM (inactive)
Cc1ccc(/C=C2\CCC3=C2OC(N)=C(C#N)C3c2ccc(C)cc2)cc1 (stereo not drawn) | > 80 µM (inactive)
CN(C)C(=S)N=Nc1[nH]c2ccccc2c1O | > 80 µM (inactive)
Oc1ccc(/C=N/Nc2cc(N3CCCC3)nc(N3CCCC3)n2)cc1O | inactive
Cc1ccc(-c2cc(-c3ccc(C)cc3)[n+](-c3ccccc3)c(-c3ccc(C)cc3)c2)cc1 | > 80 µM (inactive)
COc1cc([N+](=O)[O-])cc(/C=N/NC(=O)c2ccc(NC(=O)c3ccc(C)cc3)cc2)c1O | > 80 µM (inactive)

Fill blank: measured EC50 of the molecule Cc1ccc(NC(=O)c2ccc([N+](=O)[O-])o2)cc1S(=O)(=O)N1CCOCC1 is ____. > 80 µM (inactive)

====

- experimental-target: CHO-XBP1 luciferase reporter, IRE1-XBP1 UPR activation
- experiment-summary: XBP1 luciferase reporter activation – CHO-XBP1 cells, luminescence, counter-screen for apoptotic UPR arm activators, dose response (AID 489040);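 note: reporter read after six hours of compound exposure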
Activity calls are given as the source filed them.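 How the source made its calls: active means mean half-maximal activating concentration from the dose-response fit at or below a set limit; inactive means the rest.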
recorded-metric: EC50

Cc1ccccc1S(=O)(=O)NC1OC(=O)C(Cl)=C1Cl (stereo unspecified) | > 80 µM (inactive)
Cc1cc(C(=O)c2ccc(Cl)cc2)c(NC(=O)CCl)s1 | > 80 µM (inactive)
CN(C(=O)CSc1cc(C(=O)c2nccn2C)c2ccccc2n1)c1ccccc1 | > 80 µM (inactive)

State the recorded EC50 for this entry: CCC(=O)Nc1ccc(C(=O)Cn2ncc(Cl)c(Cl)c2=O)cc1 > 80 µM (inactive)

Record request: EC50 value, item CC1CCC/C=C/C2CC(O)CC2C(O)/C=C/C(=O)O1 (stereo unspecified) > 80 µM (inactive)

May I ask what EC50 has been recorded for COC(=O)c1cc(=O)n(Cc2ccc3c(c2)OCO3)c(=Nc2ccc(F)c(Cl)c2)s1 ? > 80 µM (inactive)
